Data provenance: patent US20230014722A1

# TARGET_OR_SYSTEM: T1, mPD-1.His (mouse, UniProt Q02242 25-167, limits assumed)
# T1 construct: Soluble analyte, probably the extracellular domain; also called mouse PD-1 (SPR analyte)
# T1 sequence (looked up): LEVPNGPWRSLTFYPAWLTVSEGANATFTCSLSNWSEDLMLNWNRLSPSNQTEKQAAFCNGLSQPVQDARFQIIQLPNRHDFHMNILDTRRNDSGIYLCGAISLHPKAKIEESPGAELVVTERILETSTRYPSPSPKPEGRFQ
# METHOD_NOTES: SPR (ProteOn XPR36), antibody captured on Protein A, PD-1.His as analyte, 1:1 fit
# Text: Antibodies were characterized for affinity and binding kinetics to PD-1 by SPR assay using ProteOn XPR36 (Bio-Rad). Protein A protein (Sigma) was immobilized to a GLM sensor chip (Bio-Rad) through amine coupling. Purified antibodies were flowed over the sensor chip and captured by the Protein A. The chip was rotated […] and washed with running buffer (1×PBS/0.01% Tween20, Bio-Rad) until the baseline was stable. […]
READOUT: koff (s⁻¹)

1) 2C2 (antibody, human IgG4, V domains shown) VH: QVQLVQSGAEVKKPGSSVKVSCKASGFTFTTYYISWVRQAPGQGLEYLGYINMGSGGTNYNEKFKGRVTITADKSTSTAYMELSSLRSEDTAVYYCAIIGYFDYWGQGTMVTVSS VL: DVVMTQSPLSLPVTLGQPASISCRSSQSLLDSDGATYLYWFQQRPGQSPRRLIYLVSTLGSGVPDRFSGSGSGTDFTLKISRVEAEDVGVYYCMQLTHWPYTFGQGTKLEIK; 0.00153
2) 1H6 (antibody, human IgG4, V domains shown) VH: QVQLVQSGAEVKKPGSSVKVSCKASGFTFTTYYISWVRQAPGQGLEYLGYINMGSGGTNYNEKFKGRVTITADKSTSTAYMELSSLRSEDTAVYYCAILGYFDYWGQGTMVTVSS VL: DVVMTQSPLSLPVTLGQPASISCRSSQSLLDSDGGTYLYWFQQRPGQSPRRLIYLVSTLGSGVPDRFSGSGSGTDFTLKISRVEAEDVGVYYCMQLTHWPYTFGQGTKLEIK; 0.003
3) 2E5 (antibody, human IgG4, V domains shown) VH: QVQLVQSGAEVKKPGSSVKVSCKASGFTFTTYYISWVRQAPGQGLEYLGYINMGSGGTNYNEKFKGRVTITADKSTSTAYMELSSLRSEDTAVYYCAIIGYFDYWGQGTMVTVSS VL: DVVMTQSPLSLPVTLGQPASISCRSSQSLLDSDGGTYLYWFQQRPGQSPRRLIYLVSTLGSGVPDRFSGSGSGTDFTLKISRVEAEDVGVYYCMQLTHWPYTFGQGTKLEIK; 0.00129
